# System: A549 (lung)
# ASSAY_REMARKS: Growth inhibition, MTT assay, A549
# Format: cell-based, human
# CONDITION_DESCRIPTION: A549, 72-h drug exposure, read-out: IC50 growth inhibitory activity
ENDPOINT: IC50
Lab note: write values as number then unit, every time.

COMPOUND	IC50
CN(CCBr)P(=O)(OCC1=CC(=O)c2ccccc2C1=O)N(C)CCBr [Compound 40a]	11.2 µM
COC1=CC(=O)c2c(cc(COP(N)(=O)N(CCCl)CCCl)n2C)C1=O (stereo not shown)	0.203 µM
NP(=O)(OCC1=CC(=O)c2ccccc2C1=O)N(CCBr)CCBr (stereo not shown) [Compound 16a]	4.58 µM

Lab note: next compound to report on.
Item COC1=CC(=O)c2c(cc(COP(N)(=O)N(CCBr)CCBr)n2C)C1=O (stereo not shown) has what recorded IC50?
0.009 µM

###

# Test system: PaCa-2 (pancreas)
# ASSAY_REMARKS: Growth inhibition, MTT assay, PaCa-2
# Format: cell-based, human
# CONDITION_DESCRIPTION: PaCa-2, 72-h drug exposure, read-out: IC50 growth inhibitory activity
Provide the recorded IC50 for the entries that follow.
Lab note: write values as number then unit, every time.

Previously resolved entries follow.
COMPOUND	IC50
CN(CCBr)P(=O)(OCC1=CC(=O)c2ccccc2C1=O)N(C)CCBr [Compound 40a]	2300 nM
COC1=CC(=O)c2c(cc(COP(N)(=O)N(CCCl)CCCl)n2C)C1=O (stereo not shown)	6 nM
NP(=O)(OCC1=CC(=O)c2ccccc2C1=O)N(CCBr)CCBr (stereo not shown) [Compound 16a]	4420 nM

Lab note: next compound to report on.
Short answer please: IC50, PaCa-2 (pancreas), entry COC1=CC(=O)c2c(cc(COP(N)(=O)N(CCBr)CCBr)n2C)C1=O (stereo not shown)
35 nM
